Reference for the values: ChEMBL document CHEMBL1135755

- TEST_PROTOCOL: Dissociation constant was determined
- Format: physicochemical
MEASUREMENT_KIND: pKd
As a rule, pKd stands for the negative log10 of the concentration, concentration in M.

Give a short answer stating reported pKd for "NCC[C@@H](NC(=O)c1ccc(-c2cccc(NC(=O)c3ccc4nc(O)c(O)nc4c3)c2)o1)C(=O)N1CCNCC1" .
5.19

====

- Tested on: Nucleic Acid
- TEST_PROTOCOL: Inhibitory activity against RNA target using functional assay
MEASUREMENT_KIND: IC50 (µM)
Numbers only here, please. The scale is µM.

Give a short answer stating reported IC50 for "NCC[C@@H](NC(=O)c1ccc(-c2cccc(NC(=O)c3ccc4nc(O)c(O)nc4c3)c2)o1)C(=O)N1CCNCC1" .
14
